Reference for the values: patent US4393178A

Entries annotated with measured Tn(comp.)-Tn(PET) (16° C./min)
test: Crystallisation peak temperature on heating (Tn), DSC; assay type: physicochemical; details: 1% salt deposited from solution on PET chip, pressed 280 °C 1 minute; heating rate 16 °C/minute
Structures can show the parent of a compound that is named as a salt.
Measured Metric: Tn(comp.)-Tn(PET) (16° C./min) (°C)

compound="O=C(O)c1cccs1 [Sodium salt of 2-thiophencarboxylic acid]" measured_metric="Tn(comp.)-Tn(PET) (16° C./min)" unit_symbol=°C endpoint_result=29
compound="O=C(O)c1ccccc1-c1ccccc1 [Sodium salt of 2-biphenylcarboxylic acid]" measured_metric="Tn(comp.)-Tn(PET) (16° C./min)" unit_symbol=°C endpoint_result=22
compound="O=C(O)c1ccc2ccccc2c1 [Sodium salt of 2-naphthoic acid]" measured_metric="Tn(comp.)-Tn(PET) (16° C./min)" unit_symbol=°C endpoint_result=25
compound="O=C(O)c1ccc(-c2ccccc2)cc1 [Sodium salt of 4-biphenylcarboxylic acid]" measured_metric="Tn(comp.)-Tn(PET) (16° C./min)" unit_symbol=°C endpoint_result=16

---

Entries annotated with measured End Groups Total from solution I.V.
assay: End group determination; format: physicochemical; conditions: 1% salt deposited from solution on PET chip, pressed 280 °C 1 minute
Where a name gives a salt, the structure may show the parent alone.
Measured Metric: End Groups Total from solution I.V. (moles × 10^-6 g^-1)

molecule="O=C(O)c1ccc(-c2ccccc2)cc1 [Sodium salt of 4-biphenylcarboxylic acid]" endpoint_result=107
molecule="O=C(O)c1cccs1 [Sodium salt of 2-thiophencarboxylic acid]" endpoint_result=145
molecule="O=C(O)c1ccc2ccccc2c1 [Sodium salt of 2-naphthoic acid]" endpoint_result=121
molecule="O=C(O)c1ccccc1-c1ccccc1 [Sodium salt of 2-biphenylcarboxylic acid]" endpoint_result=133
molecule="O=C(O)c1ccco1 [Sodium salt of 2-furoic acid]" endpoint_result=121

---

Entries annotated with measured End Groups Carboxylate
test: End group determination; format: physicochemical; details: PET I.V. 0.73 + 1% salt, 2-roll mill 300 °C 2 min
Measured Metric: End Groups Carboxylate (moles × 10^-6 g^-1)

molecule="O=C(O)c1ccccc1 [sodium benzoate, reference compound]" endpoint_result=13
molecule="CC(C)(C)c1ccc(C(=O)[O-])cc1.[Na+] [sodium para-tert-butylbenzoate, reference compound]" endpoint_result=4
molecule="O=C([O-])c1cc(O)cc(O)c1.[Na+] [sodium 3,5-dihydroxybenzoate]" endpoint_result=0

---

assay: Crystallisation peak temperature on heating (Tn), DSC; assay type: physicochemical; details: 1% salt on PET I.V. 0.73 from solution; time in press 60 sec at 280 °C
Measured Metric: Tn (°C)

compound="O=C(O)c1ccccc1 [sodium benzoate, reference compound]" endpoint_result=117
compound="COC(=O)c1ccc(C(=O)[O-])cc1.[Na+] [Sodium monomethyl terephthalate, reference compound]" endpoint_result=132
compound="O=C(O)c1ccccc1C(=O)O [Potassium hydrogen orthophthalate, reference compound]" endpoint_result=144.5
compound="COC(=O)c1ccc(C(=O)[O-])cc1.[K+] [Potassium monomethyl terephthalate, reference compound]" endpoint_result=137.5
compound="O=C([O-])c1ccc(C(=O)[O-])cc1.[Na+].[Na+] [Disodium terephthalate, reference compound]" endpoint_result=140

---

test: End group determination; assay type: physicochemical; conditions: 1% salt deposited from solution on PET chip, pressed 280 °C 1 minute
Counter-ions that a name gives are not always drawn.
Entries annotated with measured End Groups --OH
Measured Metric: End Groups --OH (moles × 10^-6 g^-1)

molecule="O=[PH](O)c1ccccc1 [Sodium phenyl phosphinate]" endpoint_result=66
molecule="O=C(O)c1ccccc1-c1ccccc1 [Sodium salt of 2-biphenylcarboxylic acid]" endpoint_result=60
molecule="O=C(O)c1ccc2ccccc2c1 [Sodium salt of 2-naphthoic acid]" endpoint_result=60
molecule="O=C(O)c1ccco1 [Sodium salt of 2-furoic acid]" endpoint_result=62
molecule="O=C(O)c1ccc(-c2ccccc2)cc1 [Sodium salt of 4-biphenylcarboxylic acid]" endpoint_result=61
molecule="O=C(O)c1cccs1 [Sodium salt of 2-thiophencarboxylic acid]" endpoint_result=59
